- testProtocol: Toxicity in African green monkey Vero cells
- Assay type: cell-based
- conditionSet: chlorocebus sabaeus
recordedEndpoint: CC50 (µM)
# unit: µM | format: bare number

1) O=C(/C=C/c1ccc([N+](=O)[O-])o1)c1ccc(N2CCCCC2)cc1 349

Measured CC50, Cc1ccc(C(=O)/C=C/c2ccc([N+](=O)[O-])o2)cc1 : 439

Measured CC50, O=C(/C=C/c1ccc([N+](=O)[O-])s1)c1ccc(N2CCCCC2)cc1 : 404

Measured CC50, O=C(/C=C/c1ccc([N+](=O)[O-])o1)c1ccc(Br)cc1 : 354

Measured CC50, O=C(/C=C/c1ccco1)c1ccc(F)cc1 : 661

Measured CC50, O=C(/C=C/c1ccc([N+](=O)[O-])o1)c1ccc(OCc2ccc(F)cc2)cc1 : 430

Measured CC50, O=C(/C=C/c1ccc([N+](=O)[O-])o1)c1ccc(OCc2ccc(Cl)cc2Cl)cc1 : 340

Measured CC50, O=C(/C=C/c1ccc([N+](=O)[O-])o1)c1cc2ccccc2oc1=O : 360

Measured CC50, O=C(/C=C/c1ccc([N+](=O)[O-])o1)c1ccc(OCc2ccc(OC(F)(F)F)cc2)cc1 : 335

Measured CC50, O=C(/C=C/c1ccc([N+](=O)[O-])o1)c1cccs1 : 742
